- TARGET ENTITY: human EP4 (Homo sapiens, UniProt P35408)
- Sequence (P35408 whole entry): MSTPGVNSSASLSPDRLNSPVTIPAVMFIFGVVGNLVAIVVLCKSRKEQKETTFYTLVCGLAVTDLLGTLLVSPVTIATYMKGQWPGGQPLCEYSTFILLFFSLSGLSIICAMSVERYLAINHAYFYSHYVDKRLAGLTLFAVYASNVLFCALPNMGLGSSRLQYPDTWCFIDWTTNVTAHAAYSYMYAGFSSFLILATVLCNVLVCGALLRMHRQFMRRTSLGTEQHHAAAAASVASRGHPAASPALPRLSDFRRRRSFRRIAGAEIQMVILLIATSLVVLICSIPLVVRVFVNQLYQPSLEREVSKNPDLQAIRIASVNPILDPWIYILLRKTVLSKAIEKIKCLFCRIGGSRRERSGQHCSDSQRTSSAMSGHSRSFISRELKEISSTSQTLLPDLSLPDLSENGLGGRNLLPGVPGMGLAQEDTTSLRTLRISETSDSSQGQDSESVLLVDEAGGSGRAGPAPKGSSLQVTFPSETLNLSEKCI
- ASSAY DETAILS: In vitro binding to human EP4 ([3H]-PGE2 displacement, HEK293 membranes)
- EXPERIMENTAL SETUP: [3H]-PGE2 binding, hEP4 membranes from recombinant HEK293 cells
pKi: −log10 of the molar value. Where a name gives a salt, the structure may show the parent alone.
READOUT: pKi

> print(dat)
                                   compound  reported.result
1  C[C@H](NC(=O)[C@H]1Cc2ccccc2CN1CCOc1ccccc1)c1ccc(C(=O)O)cc1             9.39
2  C[C@H](NC(=O)[C@H]1Cc2ccccc2CN1CCOc1ccc(F)cc1)c1ccc(C(=O)O)cc1 [Example 2, hydrochloride]             9.42

----------
- TARGET ENTITY: human EP2 (Homo sapiens)
- Sequence (P43116 whole entry): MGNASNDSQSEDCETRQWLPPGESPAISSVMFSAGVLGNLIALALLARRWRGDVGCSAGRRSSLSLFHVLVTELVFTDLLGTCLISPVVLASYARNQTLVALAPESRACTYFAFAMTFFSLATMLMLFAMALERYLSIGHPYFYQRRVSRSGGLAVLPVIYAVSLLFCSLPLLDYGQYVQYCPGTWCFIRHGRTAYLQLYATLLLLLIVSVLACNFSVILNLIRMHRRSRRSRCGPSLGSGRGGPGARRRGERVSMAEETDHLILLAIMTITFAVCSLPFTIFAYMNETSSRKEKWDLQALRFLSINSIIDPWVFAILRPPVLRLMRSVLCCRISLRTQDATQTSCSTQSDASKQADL
pKi: −log10 of the molar value. Where a name gives a salt, the structure may show the parent alone.
READOUT: pKi

[I] C[C@H](NC(=O)[C@H]1Cc2ccccc2CN1CCOc1ccc(F)cc1)c1ccc(C(=O)O)cc1 [Example 2, hydrochloride]
[II] C[C@H](NC(=O)[C@H]1Cc2ccccc2CN1CCOc1ccccc1)c1ccc(C(=O)O)cc1 [Example 1]
Looking at recorded values for pKi, does I or II come in lower? API: response body contains the label of the selected item. II
(II: 5.88, I: 6.48)
